Overview of recorded apparent KD of MS2 coat protein for various sequences
Test system: MS2 coat protein
Assay: apparent KD of MS2 coat protein; designed switch direction (-1 OFF switch, 1 ON switch): -1; higher = weaker reporter binding
Details: input ligand: none
The answer is to be given in nM; state only the numeric part.

Construct Sequence: GGACCAAGUCUAGGAUAUUUCAAUAGUUGUGUGAGAGAAGGAGAAUAACAUGAGGAUCACCCAUGUACCUCAAGUAGGCCGAUU [Eternabot solution 16] (Eterna round: R96, puzzle: Exclusion NG 1)
Experimental Target: MS2 coat protein
apparent KD of MS2 coat protein (nM): 48

Construct Sequence: UGAUCAGACCGAGGAUAUACAUGGAGGACGCACGUGAGUGCGUCCACUACAUGAGGAUCACCCAUGUAGAAGGCGGUCUGAUCU [JL ENG2 1.92] (Eterna round: R96, puzzle: Exclusion NG 2)
Experimental Target: MS2 coat protein
apparent KD of MS2 coat protein (nM): 144

Kindly review the next sequence as well.
Please tell me: apparent KD of MS2 coat protein of AUUCCUCCUGUGAGGAUAUGCGUUACGCACCCGUCGCAGAAGGCACAUGAGGAUCACCCAUGUGAGUUACCAAU [BmEX4 A.11] (Eterna round: R97, puzzle: Brourd's mod of Exclusion 4) , system MS2 coat protein?
18.9

---

Overview of recorded apparent KD of MS2 coat protein for various sequences
Tested on: MS2 coat protein
Assay: apparent KD of MS2 coat protein; designed switch direction (-1 OFF switch, 1 ON switch): -1; higher = weaker reporter binding
Details: input ligand: none
The answer is to be given in nM; state only the numeric part.

Construct Sequence: ACAUGUAAUGCAGGAUAUCUGACACAUGAGGAUCACCCAUGUGACCAGAGGAAUUGCUAAGAGUCGGAGAAGGGUAUGUACAUG [Ex NG2 #53] (Eterna round: R96, puzzle: Exclusion NG 2)
apparent KD of MS2 coat protein [nM]: 19.7

Kindly review the next sequence as well.
Any idea what apparent KD of MS2 coat protein was measured for UUAAAUCAUGUAGGAUAUGCUUUGCGAAGCGAGGCAGAAGGACAUGAGGAUCACCCAUGUGCUAGCGUCCGAGUACGGAUGCAA [Mat - Exclusion NG 1 - Mod of JL - D62] (Eterna round: R96, puzzle: Exclusion NG 1) ?
83.3

---

System: MS2 coat protein
Assay: apparent KD of MS2 coat protein; designed switch direction (-1 OFF switch, 1 ON switch): 1; higher = weaker reporter binding
Settings: input ligand: microRNA oligo, concentration not stated
Mark NO for apparent KD of MS2 coat protein values under 40 nM, and YES for everything at or above.

# example entries with known answers
Construct Sequence: UGAAUAGUUACAGGAUAUCAUGCGAAAAUUGCGUGAGAAGGGUGGGUGUUGUGCGCUAAGUGCUACAUGAGGAUCACCCAUGUU [SameState NG1 #37] (Eterna round: R96, puzzle: Same State NG 1)
Discrete Label: NO
--
Construct Sequence: UUGAAGAAUUAAGGAUAUCGAGUCGUCUAAUUAAACAUGAGGAUCACCCAUGUGGGUUGUGGUAUCGAGAAGGUAAAUUACUAA [JR_SSNG2_Sub099] (Eterna round: R96, puzzle: Same State NG 2)
Discrete Label: YES
--
Construct Sequence: UUAACAUGAGGAUCACCCAUGUAUAGGGAGUUUGCAAUUUGACAGGAUAUUGAAGAUUUAUAUAGCAAGAAGGGUCGUUAGUCU [JR_SSNG3_Sub005] (Eterna round: R96, puzzle: Same State NG 3)
Discrete Label: YES

Could you verify whether the entry GUUAGGAAUCUAGCAAACAUGAGGAUCACCCAUGUUAGUGGGAAGGAUAUGGUACAGAAACUGUACCAGAAGGUCUUAUUGAUU [Omei SS(NG) 3 AV4] (Eterna round: R96, puzzle: Same State NG 3) shows apparent KD of MS2 coat protein of no less than 40 nM?
NO

Could you verify whether the entry ACAUGAGGAGCAGGAUAUCGCAUGAGGAUCACCCGAGAAGGGCUCACACAUGAGGAUCACCCAUGUAUCACCCAUGUAUGUUGA [twils 1] (Eterna round: R96, puzzle: Same State NG 1) shows apparent KD of MS2 coat protein of no less than 40 nM?
YES

---

Test system: MS2 coat protein
Assay: apparent KD of MS2 coat protein; designed switch direction (-1 OFF switch, 1 ON switch): -1; higher = weaker reporter binding
Details: input ligand: none
Quantity Measured: apparent KD of MS2 coat protein (µM)
The answer is to be given in µM; state only the numeric part.

Construct Sequence: CUUGAGCAGGUAGGAUAUACGAUGUGUCGGCGAGUAGAAGGACCUGCGAUCCACUUGAGGAUCACCCAAGUUCGCAGGAGAACA [Mutated MS2 EX1.18] (Eterna round: R96, puzzle: Exclusion NG 1)
Unit Of Measurement: µM
apparent KD of MS2 coat protein: 0.0334

Any idea what apparent KD of MS2 coat protein was measured for CCCGUACAUGAGGAUCACCCAUGUCAGGAUAUCUAAUCAUGCUGUAAGGCACAUUGAGGGAGAAGGGACAUAUU [EX1 B.29] (Eterna round: R97, puzzle: Exclusion 1) ?
0.0208

Any idea what apparent KD of MS2 coat protein was measured for UUCACAUGGACAUAAGAUCACAUGAGGAUCACCCAUGUGAAUAACAAGCUUUUUGCUCGUCUUAUGUCCAAUAAUAU [Stov1/14-A3] (Eterna round: R97, puzzle: Sensor, turn-off variant 1) ?
0.0132

Any idea what apparent KD of MS2 coat protein was measured for CCGCGCCGGCGAGGAUAUUAGAAAGGAAGUGUAUAAGAAGGCGCCAUGCGCGAACAUGAGGAUCACCCAUGUGCCGCUCGUGUA [PowerStrip EXNG 1.24] (Eterna round: R96, puzzle: Exclusion NG 1) ?
0.0231

Any idea what apparent KD of MS2 coat protein was measured for AUGUGCACGCUGCGGUCCUACAUGAGGAUCACCCAUGUGGUCUGGUGGCGUGGGUCACCGGACUUGGCUCGUCUUGC [salish99_S_TOV1_R5_058] (Eterna round: R97, puzzle: Sensor, turn-off variant 1) ?
0.0212

Any idea what apparent KD of MS2 coat protein was measured for ACGAAGCUUUUUGCUCGUCACAUGAGGAUCACCCAUGUGGGCCCGGGCGCCCGGGCCGACAUCCCACUAGGACAUGU [#2] (Eterna round: R97, puzzle: Sensor, turn-off variant 1) ?
0.122

Any idea what apparent KD of MS2 coat protein was measured for UCUCGUUGGCAAGGAUAUCCUACAUUGUUCUGGCCCGGGCAUGCUACAUGAGGAUCACCCAUGUGGGAGAAGGUGCGCCAUUGC [Design 24] (Eterna round: R96, puzzle: Exclusion NG 2) ?
0.0652

Any idea what apparent KD of MS2 coat protein was measured for UCUUAGUCAGGAUAUACAUGAGGAUCACCCAUGUAAAAUUUUAAUUUAAUUUUAAGGUGUAGAAGGGACCACCU [Ex3 #18] (Eterna round: R97, puzzle: Exclusion 3) ?
0.0234

Any idea what apparent KD of MS2 coat protein was measured for UCACGCACUGUUAGGAUAUGUAUUAUGAAGGUAGUACAGAAGGAACAUGAGGAUCACCCAUGUAAUCCUGGGUG [Eternabot (L1) Solution 61] (Eterna round: R97, puzzle: Brourd's mod of Exclusion 4) ?
0.0931

---

Overview of recorded apparent KD of MS2 coat protein for various sequences
Test system: MS2 coat protein
Experiment: apparent KD of MS2 coat protein; designed switch direction (-1 OFF switch, 1 ON switch): 1; higher = weaker reporter binding
Settings: input ligand: microRNA oligo, concentration not stated

Construct Sequence: AUUAAUUAUGCAGGAUAUGAUUAACAUGAGGAUCACCCAUGUGGUGUUGUGAGUAAGGAGAGUGAUCAGAAGGGCAUUUUUUUU [JMF's solution 66] (Eterna round: R96, puzzle: Same State NG 2)
apparent KD of MS2 coat protein: 524 nM

Construct Sequence: AGCUAGUACCGAGGAUAUACAUACAUGAGGAUCACCCAUGUAUACAUGAAAUAAUGAGACUACAUGUAGAAGGCGGUACUAGCA [Mat - Same State NG 2 - JL mod - D45] (Eterna round: R96, puzzle: Same State NG 2)
apparent KD of MS2 coat protein: 43.5 nM

Kindly review the next sequence as well.
Any idea what apparent KD of MS2 coat protein was measured for AAAGAAACAUGAGGAUCACCCAUGUACCGCGGAAUGUGUGCACAGGAUAUGUACAGCUUUUGCUUACAGAAGGGUGCGCCCGUG [Enorso] (Eterna round: R96, puzzle: Same State NG 3) ?
38.7 nM

---

Tested on: MS2 coat protein
Test: apparent KD of MS2 coat protein; higher = weaker reporter binding
Settings: Eterna round: R107; input ligand: theophylline 20 uM
Mark NO for apparent KD of MS2 coat protein values under 100 nM, and YES for everything at or above.

Construct Sequence: UUCGUUUACGGAAGGAGCGACGGACAUCGGUGAUCUAUGCACAUGAGGAUCACCCAUGUACGUCAGGUAGGUCGCCGUUAAGAGU [XArg-B28]
Discrete Label: NO

Could you verify whether the entry GUAAUUUUAAGAAGGAGCGUCGAAAAUGGGUAAACAUGAGGAUCACCCAUGUAAAGGGAACGACAGGUAGGUCGCUUAGGAUUAC [AstromonsSSArgB#23] shows apparent KD of MS2 coat protein of no less than 100 nM?
YES

Could you verify whether the entry UGAUGGUUCGGAAGGAGCGUGUAAGAACAAGAACAUGAGGAUCACCCAUGUAUUAAUUUAACACAGGUAGGUCGCCGGGUUAUUG [11.J] shows apparent KD of MS2 coat protein of no less than 100 nM?
NO

Could you verify whether the entry UUAAUCUUAGAAGAAAACUUUUAAGCAGAAGGAGCGUGAUAAAACACAGGUAGGUCGCUGAAGGGAACAUGAGGAUCACCCAUGU [AstrosSSArgA#18] shows apparent KD of MS2 coat protein of no less than 100 nM?
NO

Could you verify whether the entry UACAUGAGGAUCACCCAUGUAUGAAGGGAUACCAGCGACAGUAAGCGCCCUUGGCAGCCCGUGAAUAAAGGGUGGGUAAAAUAGU [Exclusion Theophyline A GF 3] shows apparent KD of MS2 coat protein of no less than 100 nM?
NO

Could you verify whether the entry ACAUCCAGGUUAAUCGUGGACAUGGUCGAUACCAGUAUUUUAAUCUACCCUUGGCAGCGACAUGAGGAUCACCCAUGUGCGAUGA [XTheo A #14] shows apparent KD of MS2 coat protein of no less than 100 nM?
NO
